system: CD8+ T cells; assay: In vitro T-cell priming assay with aAPCs (in vitro immunogenicity for MHC class I presented peptides); type: cell-based, human; conditions: in vitro immunogenicity of HLA class I peptides, Table 10a
Reported Property: Wells positive [%]

Example substances with recorded Wells positive [%]:
The value of Wells positive [%] measured for the substance 519 (KIQEILTQV; listed as Homo sapiens) [compound 519] turned out to be + (<20% = +)

The value of Wells positive [%] measured for the substance 491 (KYLEKYYNL; listed as Homo sapiens) [compound 491] turned out to be ++ (20%-49% = ++)

The value of Wells positive [%] measured for the substance 494 (RYLEKFYGL; listed as Homo sapiens) [compound 494] turned out to be + (<20% = +)

The value of Wells positive [%] measured for the substance 496 (VFMKDGFFYF; listed as Homo sapiens) [compound 496] turned out to be + (<20% = +)

The value of Wells positive [%] measured for the substance 515 (KIFEMLEGV; listed as Homo sapiens) [compound 515] turned out to be + (<20% = +)

Next:
The value of Wells positive [%] measured for the substance 492 (NYEDHFPLL; listed as Homo sapiens) [compound 492] turned out to be ++ (20%-49% = ++)

The value of Wells positive [%] measured for the substance 525 (RLDDLKMTV; listed as Homo sapiens) [compound 525] turned out to be + (<20% = +)

The value of Wells positive [%] measured for the substance 493 (TYKYVDINTF; listed as Homo sapiens) [compound 493] turned out to be + (<20% = +)
